target system: ERK5 (Homo sapiens, UniProt Q13164)
Sequence (Q13164 1-398): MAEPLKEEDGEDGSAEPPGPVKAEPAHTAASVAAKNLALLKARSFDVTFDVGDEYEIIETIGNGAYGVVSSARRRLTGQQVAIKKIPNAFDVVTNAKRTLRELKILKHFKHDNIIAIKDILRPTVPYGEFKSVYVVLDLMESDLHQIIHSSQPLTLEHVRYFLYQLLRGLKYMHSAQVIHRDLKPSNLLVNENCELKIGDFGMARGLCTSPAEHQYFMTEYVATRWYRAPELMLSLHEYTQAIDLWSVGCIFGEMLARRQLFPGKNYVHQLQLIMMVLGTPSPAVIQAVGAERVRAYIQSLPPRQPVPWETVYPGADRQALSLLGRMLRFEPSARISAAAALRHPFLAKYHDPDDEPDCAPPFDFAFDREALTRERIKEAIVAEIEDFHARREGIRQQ
# binning rule on IC50: lowest: < 100 nM; middle: ≥ 100 nM and < 400 nM; highest: ≥ 400 nM

compound string | cat
O=C(c1ccc(OC(F)(F)F)cc1)N1CCC(c2ncnc3cc(-c4ccn[nH]4)ccc23)CC1 | lowest
O=C(c1ccc(OC(F)(F)F)cc1)N1CCC(c2ncnc3cc(OC4CCOCC4)ccc23)CC1 | middle
CS(=O)(=O)Nc1ccc2c(C3CCN(C(=O)c4ccc(OC(F)(F)F)cc4)CC3)ncnc2c1 | middle
CC1(N)CCN(c2cnc3c(C4CCN(C(=O)c5ccc(OC(F)(F)F)cc5)CC4)ncnc3c2)CC1 | lowest

Please indicate the class for COc1cc2ncnc(C3CCN(C(=O)c4ccc(C(C)C)cc4)CC3)c2cc1OC based on its IC50.
middle

Using the reported IC50, which band applies to O=C(c1ccc(OC(F)(F)F)cc1)N1CCC(c2ncnc3cc(C4=CCOCC4)ccc23)CC1 ?
lowest

Categorize the following entry: O=C(c1ccc(OC(F)(F)F)cc1)N1CCC(c2ncnc3cc(N4CCCCC4=O)ccc23)CC1
highest

Assign a category based on measured IC50 for NC(=O)c1ccc2c(C3CCN(C(=O)c4ccc(OC(F)(F)F)cc4)CC3)ncnc2c1 and give only the class name.
middle

Bin this entry: N#Cc1ccc2c(C3CCN(C(=O)c4ccc(OC(F)(F)F)cc4)CC3)ncnc2c1
highest

Class label required: CN(C)C(=O)c1ccc2c(C3CCN(C(=O)c4ccc(OC(F)(F)F)cc4)CC3)ncnc2c1
highest

Which IC50 category applies to CC(=O)NCCOc1ccc2c(C3CCN(C(=O)c4ccc(OC(F)(F)F)cc4)CC3)ncnc2c1 here?
middle

Into which category would you place COc1cc2ncnc(C3CCN(C(=O)c4ccc(COCC(F)(F)F)cc4)CC3)c2cc1OC ?
highest

Class (by measured IC50) for O=C(c1ccc(OC(F)(F)F)cc1)N1CCC(c2ncnc3cc(O)ccc23)CC1
middle

* * *

target system: UniProt Q13164
So I've got a bunch of compounds here, and I need their IC50 values.
Answers are plain numbers, in nM.

Previously resolved entries follow.
compound string | endpoint label | value reported
O=C(c1ccc2c(C3CCN(C(=O)c4ccc(OC(F)(F)F)cc4)CC3)ncnc2c1)N1CCCC1 | IC50 | 1590
COc1cc2ncnc(C3CCN(C(=O)c4ccc(OC(F)(F)F)c(F)c4)CC3)c2cc1OC | IC50 | 88.5
CC1(C)CN(c2cnc3c(C4CCN(C(=O)c5ccc(OC(F)(F)F)cc5)CC4)ncnc3c2)CCO1 | IC50 | 36.3
COc1cc2ncnc(C3CCN(C(=O)c4ccc(OC(C)(C)C)cc4)CC3)c2cc1OC | IC50 | 1030
CN(C)CCOc1ccc2c(C3CCN(C(=O)c4ccc(OC(F)(F)F)cc4)CC3)ncnc2c1 | IC50 | 198

Alright, here's another compound for you.
Briefly, IC50 measured for O=C(c1ccc(OC(F)(F)F)cc1)N1CCC(c2ncnc3cc(N4CCC(F)(F)C4)cnc23)CC1 : 69.3
